System: T. cruzi INC-5 epimastigotes
method.notes: Viability (MTT) assay on T. cruzi epimastigotes
Type: cell-based, Trypanosoma cruzi
condition.set: 24 h, mean and SD of triplicate
readout.type: IC50 (nM)
Dear colleague, please return just the value in nM, with no unit written.

Form field - read-out: IC50; system: T. cruzi INC-5 epimastigotes; submitted item: CC(C)OC(=O)c1ccc2c(c1)[n+]([O-])c(C(=O)C(C)C)c(C(F)(F)F)[n+]2[O-] [Compound T-085]
2420

* * *

method.notes: Cytotoxicity assay (Alamar Blue) on macrophages
Format: cell-based, murine
condition.set: mouse, J774A.1 macrophages, mean and SD of triplicate
Experimental: The murine macrophage cell line J774.A1 was maintained in culture flasks with RPMI 1640 medium supplemented with 10% FBS, 1% MEM-NEAA medium (Gibco) and 100 U/mL antibiotic-antifungal mixture (Gibco). […] Trypsinized J774.A1 macrophages were washed and viability was assessed by the trypan blue dye (Sigma-Aldrich, Toluca, Edo de Mexico, Mexico) exclusion assay. […] Compounds were evaluated using six-fold serial dilutions ranging from 100 µg/mL to 0.3 µg/mL of final concentration. […]
readout.type: CC50 at 24 h (µM)
Write the value in µM as a bare number.

Illustrative cases are given below, each with its answer.
>>> value_measured("CC1CS(=O)(=O)CCN1/N=C/c1ccc([N+](=O)[O-])o1 (stereo not drawn) [Nfx, nifurtimox, reference compound]")
201
>>> value_measured("COC(=O)c1c(C)[n+]([O-])c2ccc(C(=O)OC(C)C)cc2[n+]1[O-]")
135
>>> value_measured("Cc1c(C(=O)c2ccccc2)[n+]([O-])c2cc(C(=O)OC(C)C)ccc2[n+]1[O-]")
140
>>> value_measured("CC(C)OC(=O)c1ccc2c(c1)[n+]([O-])c(C(=O)C(C)(C)C)c(C(C)(C)C)[n+]2[O-]")
164
>>> value_measured("CC(C)OC(=O)c1ccc2c(c1)[n+]([O-])c(C(=O)C(C)C)c(C(F)(F)F)[n+]2[O-]")
10.4
>>> value_measured("CC(C)OC(=O)c1ccc2c(c1)[n+]([O-])c(C(=O)c1ccccc1)c(C(F)(F)F)[n+]2[O-]")
6.7

Note: attention shifts to another entry.
What value of measured CC50 at 24 h is listed for CC(C)OC(=O)c1ccc2c(c1)[n+]([O-])c(C(=O)C(F)(F)C(F)(F)F)c(C(F)(F)F)[n+]2[O-] ?
157

* * *

system.under.test: recombinant T. cruzi TR (Trypanosoma cruzi)
Construct: made in house
Sequence (P28593 whole entry): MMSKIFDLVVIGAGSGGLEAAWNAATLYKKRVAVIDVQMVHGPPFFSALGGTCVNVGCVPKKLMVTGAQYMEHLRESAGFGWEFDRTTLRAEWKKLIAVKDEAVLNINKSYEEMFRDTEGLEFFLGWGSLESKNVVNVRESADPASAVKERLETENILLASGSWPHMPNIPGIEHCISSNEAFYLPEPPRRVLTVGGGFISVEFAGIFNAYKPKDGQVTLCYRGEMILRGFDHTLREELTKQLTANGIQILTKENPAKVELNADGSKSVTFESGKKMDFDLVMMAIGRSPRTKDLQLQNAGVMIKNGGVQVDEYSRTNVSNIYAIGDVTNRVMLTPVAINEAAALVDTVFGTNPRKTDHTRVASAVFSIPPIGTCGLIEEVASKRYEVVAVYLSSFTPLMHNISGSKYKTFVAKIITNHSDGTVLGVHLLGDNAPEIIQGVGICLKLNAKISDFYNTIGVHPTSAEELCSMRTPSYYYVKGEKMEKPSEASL
method.notes: TR enzyme inhibition (NADPH consumption at 340 nm)
Format: biochemical
condition.set: inhibitor 40 µM; 100 µM TS2; read-out: % Inhibition of TR at 100 µM [TS2]
readout.type: inhibition at 40 µM (%)
Write the value in % as a bare number.

Some compounds with recorded inhibition at 40 µM:
>>> value_measured("COC(=O)c1ccc2c(c1)[n+]([O-])c(C(=O)c1ccccc1)c(C)[n+]2[O-]")
10
>>> value_measured("COC(=O)c1ccc2c(c1)[n+]([O-])c(C(=O)OC(C)(C)C)c(C)[n+]2[O-]")
0
>>> value_measured("COC(=O)c1ccc2c(c1)[n+]([O-])c(C(N)=O)c(C)[n+]2[O-]")
0

Which value of inhibition at 40 µM has been reported for CC(C)OC(=O)c1ccc2c(c1)[n+]([O-])c(C(=O)C(C)C)c(C(F)(F)F)[n+]2[O-] in the records?
48.1
